- TEST_SYSTEM: GST-FOXP3 (GST fused to the isoform A from human FOXP3 gene) (human) [GST: P08515]
- Sequence (P08515 1-218, tags or fused parts left off): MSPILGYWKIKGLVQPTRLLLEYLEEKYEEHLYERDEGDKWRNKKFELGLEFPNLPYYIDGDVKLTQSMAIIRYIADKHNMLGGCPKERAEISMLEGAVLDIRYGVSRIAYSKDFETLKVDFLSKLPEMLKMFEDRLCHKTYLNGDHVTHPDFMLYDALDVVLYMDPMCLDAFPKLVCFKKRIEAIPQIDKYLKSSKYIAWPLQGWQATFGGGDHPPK
- ASSAY: AlphaScreen competition, GST-FOXP3 (100 nM) / His-Runx1 (46 nM, competitor); peptide at 2.5 µM
Where no end group is shown, it is not given here. [ ]: non-standard residue; d: D form.
Give measured Foxp3-Runx1 Inhibition % inhibition for each item. Keep answers brief.
Report the value in % with no unit label.

Asked: For the binder RAFQSFRKMWPFFA[dM] [peptide of SEQ ID NO: 47] , what Foxp3-Runx1 Inhibition % inhibition is on record?
Given back: 75

Asked: Bench note: what Foxp3-Runx1 Inhibition % inhibition did [dR]AFQSFRKMWPFFA[dM] [peptide of SEQ ID NO: 48] show?
Given back: 70

Asked: Data request, read-out Foxp3-Runx1 Inhibition % inhibition, for RAFQAFRKMWPFFAM (head-to-tail cyclic: linker L is C(=O) between the N-terminal amino group of residue 1 and the alpha carbon of residue 15) [cyclic peptide SEQ ID NO: 50]
Given back: 60

Asked: What does the data say about its Foxp3-Runx1 Inhibition % inhibition? Entry: Ac-GR[dA]FQSFRKMWPFFAM-NH2 (SMILES CSCC[C@H](NC(=O)[C@H](C)NC(=O)[C@H](Cc1ccccc1)NC(=O)[C@H](Cc1ccccc1)NC(=O)[C@@H]1CCCN1C(=O)[C@H](Cc1c[nH]c2ccccc12)NC(=O)[C@H](CCSC)NC(=O)[C@H](CCCCN)NC(=O)[C@H](CCCNC(=N)N)NC(=O)[C@H](Cc1ccccc1)NC(=O)[C@H](CO)NC(=O)[C@H](CCC(N)=O)NC(=O)[C@H](Cc1ccccc1)NC(=O)[C@@H](C)NC(=O)[C@H](CCCNC(=N)N)NC(=O)CNC(C)=O)C(N)=O) [peptide of SEQ ID NO: 14]
Given back: 80

Asked: Bench note: what Foxp3-Runx1 Inhibition % inhibition did H-[dR]AFQSFRKMWPFFAM-OH (SMILES CSCC[C@H](NC(=O)[C@H](C)NC(=O)[C@H](Cc1ccccc1)NC(=O)[C@H](Cc1ccccc1)NC(=O)[C@@H]1CCCN1C(=O)[C@H](Cc1c[nH]c2ccccc12)NC(=O)[C@H](CCSC)NC(=O)[C@H](CCCCN)NC(=O)[C@H](CCCNC(=N)N)NC(=O)[C@H](Cc1ccccc1)NC(=O)[C@H](CO)NC(=O)[C@H](CCC(N)=O)NC(=O)[C@H](Cc1ccccc1)NC(=O)[C@H](C)NC(=O)[C@H](N)CCCNC(=N)N)C(=O)O) [peptide of SEQ ID NO: 46] show?
Given back: 95
